Assay: clinical
Settings: human, plasma, po, Cmax, mean ± SD, digoxin 0.5 mg oral single dose alone (placebo; lisinopril 20 mg co-administered)
property_name: Cmax (ng/mL)
Could you give me the number in ng/mL? Just the number is fine.

Req: For the compound C[C@H]1O[C@@H](O[C@H]2[C@@H](O)C[C@H](O[C@H]3[C@@H](O)C[C@H](O[C@H]4CC[C@@]5(C)[C@H](CC[C@@H]6[C@@H]5C[C@@H](O)[C@]5(C)[C@@H](C7=CC(=O)OC7)CC[C@]65O)C4)O[C@@H]3C)O[C@@H]2C)C[C@H](O)[C@@H]1O , give its reported Cmax.
Resp: 2.5

---

Experiment: clinical
Settings: human, in vivo, AUC(0-12), least squares geometric mean, Reference
property_name: AUC(0-t) (ng·h/mL)
Could you give me the number in ng·h/mL? Just the number is fine.

Req: For the molecule NCCCC[C@H](N[C@@H](CCc1ccccc1)C(=O)O)C(=O)N1CCC[C@H]1C(=O)O , give its reported AUC(0-t).
Resp: 661

---

Experiment: clinical
Conditions: human, in vivo, Cmax, least squares geometric mean, Reference
property_name: Cmax (ng/mL)
Could you give me the number in ng/mL? Just the number is fine.

Req: For the compound NCCCC[C@H](N[C@@H](CCc1ccccc1)C(=O)O)C(=O)N1CCC[C@H]1C(=O)O [Lisinopril, lisinopril] , give its reported Cmax.
Resp: 83.6

---

Experiment: clinical
Conditions: human, in vivo, 20 mg
property_name: Tmax (h)
Could you give me the number in h? Just the number is fine.

Req: For the molecule NCCCC[C@H](N[C@@H](CCc1ccccc1)C(=O)O)C(=O)N1CCC[C@H]1C(=O)O [Lisinopril, lisinopril] , give its reported Tmax.
Resp: 7.5

---

Assay: clinical
Conditions: human, plasma, oral, AUC(0-12), least squares geometric mean, digoxin alone (second geometric-mean column; no unit printed in Table 7)
property_name: AUC(0-t) (ng·h/mL)
Could you give me the number in ng·h/mL? Just the number is fine.

Req: For the compound C[C@H]1O[C@@H](O[C@H]2[C@@H](O)C[C@H](O[C@H]3[C@@H](O)C[C@H](O[C@H]4CC[C@@]5(C)[C@H](CC[C@@H]6[C@@H]5C[C@@H](O)[C@]5(C)[C@@H](C7=CC(=O)OC7)CC[C@]65O)C4)O[C@@H]3C)O[C@@H]2C)C[C@H](O)[C@@H]1O [Digoxin, digoxin] , give its reported AUC(0-t).
Resp: 8.91

---

Test: clinical
Conditions: human, plasma, oral, 0.5 mg, AUC(0-12), mean ± SD, digoxin 0.5 mg alone (placebo)
property_name: AUC(0-t) (ng·h/mL)
Could you give me the number in ng·h/mL? Just the number is fine.

Req: For the molecule C[C@H]1O[C@@H](O[C@H]2[C@@H](O)C[C@H](O[C@H]3[C@@H](O)C[C@H](O[C@H]4CC[C@@]5(C)[C@H](CC[C@@H]6[C@@H]5C[C@@H](O)[C@]5(C)[C@@H](C7=CC(=O)OC7)CC[C@]65O)C4)O[C@@H]3C)O[C@@H]2C)C[C@H](O)[C@@H]1O , give its reported AUC(0-t).
Resp: 9.14

---

Test: clinical
Conditions: human, plasma, oral
property_name: Tmax (h)
Could you give me the number in h? Just the number is fine.

Req: For the compound C[C@H]1O[C@@H](O[C@H]2[C@@H](O)C[C@H](O[C@H]3[C@@H](O)C[C@H](O[C@H]4CC[C@@]5(C)[C@H](CC[C@@H]6[C@@H]5C[C@@H](O)[C@]5(C)[C@@H](C7=CC(=O)OC7)CC[C@]65O)C4)O[C@@H]3C)O[C@@H]2C)C[C@H](O)[C@@H]1O [Digoxin, digoxin] , give its reported Tmax.
Resp: 3

---

Assay: clinical
Conditions: human, plasma, oral, Cmax, least squares geometric mean, digoxin alone (second geometric-mean column; no unit printed in Table 7)
property_name: Cmax (ng/mL)
Could you give me the number in ng/mL? Just the number is fine.

Req: For the compound C[C@H]1O[C@@H](O[C@H]2[C@@H](O)C[C@H](O[C@H]3[C@@H](O)C[C@H](O[C@H]4CC[C@@]5(C)[C@H](CC[C@@H]6[C@@H]5C[C@@H](O)[C@]5(C)[C@@H](C7=CC(=O)OC7)CC[C@]65O)C4)O[C@@H]3C)O[C@@H]2C)C[C@H](O)[C@@H]1O , give its reported Cmax.
Resp: 2.38
